Quick reference for IC50 among some compounds
# Test system: SW480
# Procedure Details: Cytotoxicity against human SW480 cells after 72 hrs by MTT assay
# Type: functional, cell-based
# Conditions: SW480, 72 h
Respond numerically; units are µM and should not be typed.

Please look at this compound and report its IC50: `O=c1c(-c2c(O)cc(O)c3c(=O)cc(-c4ccc(O)cc4)oc23)c(-c2ccc(O)cc2)oc2cc(O)cc(O)c12`
185

Please look at this compound and report its IC50: O=C1c2c(O)cc(O)cc2OC(c2ccc(O)cc2)C1c1c(O)cc(O)c2c(=O)cc(-c3ccc(O)c(O)c3)oc12 (racemic)
89

Please look at this compound and report its IC50: `O=c1cc(-c2ccc(O)c(-c3c(O)cc(O)c4c(=O)cc(-c5ccc(O)cc5)oc34)c2)oc2cc(O)cc(O)c12`
111

Please examine the following record next.
Please look at this compound and report its IC50: `COc1cc2c(=O)c3c(O)cc(O)cc3oc2cc1O`
117

Taken from ChEMBL document CHEMBL1158699.
